Attribution: patent US4977189A

- Tested on: Royal Hart mice
- assay-info: Hypoxic Survival Test
- Format: in vivo, mouse (Royal Hart)
- conditions-used: Mus musculus, ip, 5 min; 25 mg/kg intraperitoneally, 30 minutes prior; 10% oxygen; survival after 5 minutes; read-out: % Survivors

| entry-smiles | measured-on | responders at 25 mg/kg |
| --- | --- | --- |
| NC(=O)c1ccc(NC(=NC(=O)c2ccc(F)cc2)NC(=O)c2ccc(Br)cc2)cc1 | Royal Hart mice | 40% |
| COc1ccc(C(=O)N=C(NC(=O)c2ccc(F)cc2)Nc2ccc(C(N)=O)cc2)cc1 | Royal Hart mice | 45% |
| COc1cc(C(=O)N=C(NC(=O)c2ccccc2)Nc2ccc(C(N)=O)cc2)cc(OC)c1OC | Royal Hart mice | 50% |
| NC(=O)c1ccc(NC(=NC(=O)c2ccc(Br)cc2)NC(=O)c2ccccc2)cc1 | Royal Hart mice | 60% |
